I'd be grateful if you could share measured normalised inhibition (eCFP-eYFP dual reporter) for these entries.
experimentalTarget: TMEM63B
method: reporter assay of Huesken 2005
conditionSet: siRNA
Oligonucleotides are given in HELM: sugar(base)linkage, 5' to 3'; d 2'-deoxyribose, r ribose, m 2'-O-methylribose, p phosphate. ss, as = sense and antisense strand
State the value, then name its unit.

What value of normalised inhibition (eCFP-eYFP dual reporter) has been recorded for this entry: `RNA1{r(A)p.r(C)p.r(G)p.r(G)p.r(A)p.r(C)p.r(A)p.r(C)p.r(A)p.r(G)p.r(A)p.r(C)p.r(U)p.r(U)p.r(C)p.r(C)p.r(A)p.r(G)p.r(U)p.d(T)p.d(T)}|RNA2{r(A)p.r(C)p.r(U)p.r(G)p.r(G)p.r(A)p.r(A)p.r(G)p.r(U)p.r(C)p.r(U)p.r(G)p.r(U)p.r(G)p.r(U)p.r(C)p.r(C)p.r(G)p.r(U)p.d(G)p.d(A)}$$$RNA1{StrandType:ss}|RNA2{StrandType:as}$`
85.7%

Can you check `RNA1{r(C)p.r(U)p.r(G)p.r(U)p.r(A)p.r(C)p.r(U)p.r(U)p.r(C)p.r(A)p.r(C)p.r(A)p.r(A)p.r(A)p.r(C)p.r(C)p.r(U)p.r(C)p.r(C)p.d(T)p.d(T)}|RNA2{r(G)p.r(G)p.r(A)p.r(G)p.r(G)p.r(U)p.r(U)p.r(U)p.r(G)p.r(U)p.r(G)p.r(A)p.r(A)p.r(G)p.r(U)p.r(A)p.r(C)p.r(A)p.r(G)p.d(C)p.d(T)}$$$RNA1{StrandType:ss}|RNA2{StrandType:as}$` next?
57.4%

Can you check `RNA1{r(G)p.r(A)p.r(C)p.r(U)p.r(U)p.r(C)p.r(A)p.r(A)p.r(C)p.r(G)p.r(U)p.r(G)p.r(U)p.r(G)p.r(U)p.r(A)p.r(A)p.r(A)p.r(U)p.d(T)p.d(T)}|RNA2{r(A)p.r(U)p.r(U)p.r(U)p.r(A)p.r(C)p.r(A)p.r(C)p.r(A)p.r(C)p.r(G)p.r(U)p.r(U)p.r(G)p.r(A)p.r(A)p.r(G)p.r(U)p.r(C)p.d(C)p.d(T)}$$$RNA1{StrandType:ss}|RNA2{StrandType:as}$` next?
102%

----------
I'd be grateful if you could share measured normalised inhibition (eCFP-eYFP dual reporter) for these entries.
experimentalTarget: UBE2S
method: reporter assay of Huesken 2005
conditionSet: siRNA
Oligonucleotides are written 5' to 3', each unit as a sugar letter and its base; * is a phosphorothioate linkage, no mark a phosphodiester; rarer units and linkages stand in square brackets, end groups in braces. Plain capitals give the bases only. d = 2'-deoxy (DNA); r = 2'-OH (RNA)
Numeric only. Scale: %

What value of normalised inhibition (eCFP-eYFP dual reporter) has been recorded for this entry: sense rCrUrGrCrUrCrArCrArGrArGrArUrCrCrArCrGdTdT / antisense rCrGrUrGrGrArUrCrUrCrUrGrUrGrArGrCrArGdAdC
54.8

Can you check sense rCrUrGrCrGrUrCrArArCrGrUrGrCrUrCrArArGdTdT / antisense rCrUrUrGrArGrCrArCrGrUrUrGrArCrGrCrArGdAdT next?
67.8

Can you check sense rArGrGrArCrUrUrCrCrCrUrGrCrCrUrCrCrCrCdTdT / antisense rGrGrGrGrArGrGrCrArGrGrGrArArGrUrCrCrUdTdC next?
55.2

Can you check sense rGrCrArCrUrGrArArGrCrUrUrCrCrUrCrCrArCdTdT / antisense rGrUrGrGrArGrGrArArGrCrUrUrCrArGrUrGrCdCdA next?
58.5

Can you check sense rCrUrCrGrGrGrCrCrCrGrUrCrUrGrCrUrCrArCdTdT / antisense rGrUrGrArGrCrArGrArCrGrGrGrCrCrCrGrArGdCdT next?
55

Can you check sense rUrGrCrUrCrUrUrGrGrArGrArArCrUrArCrGrAdTdT / antisense rUrCrGrUrArGrUrUrCrUrCrCrArArGrArGrCrAdGdG next?
77.8

----------
experimentalTarget: TMEM63B
method: reporter assay of Huesken 2005
conditionSet: siRNA
Oligonucleotides are given in HELM: sugar(base)linkage, 5' to 3'; d 2'-deoxyribose, r ribose, m 2'-O-methylribose, p phosphate. ss, as = sense and antisense strand
measuredQuantity: normalised inhibition (eCFP-eYFP dual reporter) (%)
Numeric only. Scale: %

What value of normalised inhibition (eCFP-eYFP dual reporter) has been recorded for this entry: `RNA1{r(G)p.r(G)p.r(C)p.r(C)p.r(U)p.r(G)p.r(C)p.r(U)p.r(C)p.r(A)p.r(U)p.r(G)p.r(U)p.r(A)p.r(C)p.r(A)p.r(U)p.r(G)p.r(A)p.d(T)p.d(T)}|RNA2{r(U)p.r(C)p.r(A)p.r(U)p.r(G)p.r(U)p.r(A)p.r(C)p.r(A)p.r(U)p.r(G)p.r(A)p.r(G)p.r(C)p.r(A)p.r(G)p.r(G)p.r(C)p.r(C)p.d(T)p.d(G)}$$$RNA1{StrandType:ss}|RNA2{StrandType:as}$`
71.9

Can you check `RNA1{r(G)p.r(G)p.r(G)p.r(C)p.r(U)p.r(C)p.r(C)p.r(U)p.r(G)p.r(G)p.r(G)p.r(A)p.r(G)p.r(C)p.r(U)p.r(C)p.r(A)p.r(G)p.r(G)p.d(T)p.d(T)}|RNA2{r(C)p.r(C)p.r(U)p.r(G)p.r(A)p.r(G)p.r(C)p.r(U)p.r(C)p.r(C)p.r(C)p.r(A)p.r(G)p.r(G)p.r(A)p.r(G)p.r(C)p.r(C)p.r(C)p.d(C)p.d(A)}$$$RNA1{StrandType:ss}|RNA2{StrandType:as}$` next?
36.3

Can you check `RNA1{r(G)p.r(U)p.r(A)p.r(C)p.r(A)p.r(U)p.r(G)p.r(A)p.r(U)p.r(C)p.r(C)p.r(G)p.r(G)p.r(C)p.r(U)p.r(C)p.r(U)p.r(G)p.r(C)p.d(T)p.d(T)}|RNA2{r(G)p.r(C)p.r(A)p.r(G)p.r(A)p.r(G)p.r(C)p.r(C)p.r(G)p.r(G)p.r(A)p.r(U)p.r(C)p.r(A)p.r(U)p.r(G)p.r(U)p.r(A)p.r(C)p.d(A)p.d(T)}$$$RNA1{StrandType:ss}|RNA2{StrandType:as}$` next?
46.8

Can you check `RNA1{r(C)p.r(U)p.r(G)p.r(C)p.r(U)p.r(G)p.r(A)p.r(A)p.r(G)p.r(C)p.r(A)p.r(C)p.r(C)p.r(U)p.r(G)p.r(G)p.r(U)p.r(A)p.r(G)p.d(T)p.d(T)}|RNA2{r(C)p.r(U)p.r(A)p.r(C)p.r(C)p.r(A)p.r(G)p.r(G)p.r(U)p.r(G)p.r(C)p.r(U)p.r(U)p.r(C)p.r(A)p.r(G)p.r(C)p.r(A)p.r(G)p.d(C)p.d(A)}$$$RNA1{StrandType:ss}|RNA2{StrandType:as}$` next?
75

Can you check `RNA1{r(C)p.r(G)p.r(U)p.r(G)p.r(U)p.r(G)p.r(U)p.r(A)p.r(A)p.r(A)p.r(U)p.r(G)p.r(C)p.r(C)p.r(A)p.r(G)p.r(G)p.r(G)p.r(C)p.d(T)p.d(T)}|RNA2{r(G)p.r(C)p.r(C)p.r(C)p.r(U)p.r(G)p.r(G)p.r(C)p.r(A)p.r(U)p.r(U)p.r(U)p.r(A)p.r(C)p.r(A)p.r(C)p.r(A)p.r(C)p.r(G)p.d(T)p.d(T)}$$$RNA1{StrandType:ss}|RNA2{StrandType:as}$` next?
52.1

----------
experimentalTarget: UBE2L3
method: reporter assay of Huesken 2005
conditionSet: siRNA
Oligonucleotides are written 5' to 3', each unit as a sugar letter and its base; * is a phosphorothioate linkage, no mark a phosphodiester; rarer units and linkages stand in square brackets, end groups in braces. Plain capitals give the bases only. d = 2'-deoxy (DNA); r = 2'-OH (RNA)
Returns one of rule met or rule not met; rule met when normalised inhibition (eCFP-eYFP dual reporter) is >= 50%.

Entry sense rCrArArArArCrCrGrArCrCrArArGrUrArArUrCdTdT / antisense rGrArUrUrArCrUrUrGrGrUrCrGrGrUrUrUrUrGdGdT : is its normalised inhibition (eCFP-eYFP dual reporter) no less than 50%?
rule met

Can you check sense rArUrCrGrArCrGrArArArArGrGrGrGrCrArGrGdTdT / antisense rCrCrUrGrCrCrCrCrUrUrUrUrCrGrUrCrGrArUdGdT next?
rule not met

Can you check sense rCrCrGrArArGrArUrCrArCrArUrUrUrArArArAdTdT / antisense rUrUrUrUrArArArUrGrUrGrArUrCrUrUrCrGrGdTdG next?
rule met

Can you check sense rCrArGrCrCrUrGrArGrCrArCrCrCrGrCrUrUrCdTdT / antisense rGrArArGrCrGrGrGrUrGrCrUrCrArGrGrCrUrGdGdG next?
rule not met

Can you check sense rCrUrCrArUrArGrCrArCrUrGrGrUrGrArArUrGdTdT / antisense rCrArUrUrCrArCrCrArGrUrGrCrUrArUrGrArGdGdG next?
rule met

All figures here come from the OligoGym collection.
